experiment: xn = mol fraction of the nth substance listed, in the solute-free solvent; settings: 313.15 K; x2 = 0.6101
metricName: solubility (g/100 g solution)
Form rule: numeric answer, no unit written next to it.

Problem: Quote solubility (g/100 g solution) reported for COC(=O)C1=C(C)NC(C)=C(C(=O)OCC(C)C)C1c1ccccc1[N+](=O)[O-] (centres undefined) + CCO + O please.
Result: 8.24

Problem: Find the measured solubility (g/100 g solution) of O=[N+]([O-])c1cc[nH]n1 + CCO + O and report it.
Result: 6.66

Problem: Please give the documented solubility (g/100 g solution) of CC(=O)Nc1ccc(OC(=O)c2ccccc2OC(C)=O)cc1 + CCO + O
Result: 0.829

Problem: Identify solubility (g/100 g solution) associated with the molecule CS(=O)(=O)c1ccc(C(O)C(CF)NC(=O)C(Cl)Cl)cc1 (centres undefined) + CCO + O
Result: 4.37
